B1: SPSB4 (parent)
chain: LDMDEGTLSFIVDGQYLGVAFRGL

- Variants of: B1
- assayOverview: protein stability index of a GFP-peptide fusion (GPS, HEK-293T) (PSI 1-6); higher = more stable;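 note: lentivirally expressed fusions sorted by FACS into six bins by GFP to DsRed ratio, PSI derived from sequencing read proportions per bin multiplied by bin number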
- runParameters: c terminus: a fixed tail appended
Values of protein stability index greater than or equal to 2 map to Yes; values below map to No.

Take a look at these entries with their results.
Hi, just wondering whether F10W shows protein stability index of 2 or higher. Yes

Given T7G , state whether its protein stability index is at least 2. Yes

Given D2P , state whether its protein stability index is at least 2. Yes

# check: protein stability index of L8Q is greater than or equal to 2 Yes

In plain terms: is recorded protein stability index at least 2 for A20C ? Yes

Next:
Decide: protein stability index of Y16Q >= 2? No

Does protein stability index meet or surpass 2 for L1H ? Yes

Answer whether protein stability index of G6T is greater than or equal to 2. Yes

Check this variant for protein stability index at or above 2: Q15A Yes

Would you say L1E shows protein stability index at minimum 2? No

Textbook exercise: given the entry G23T , state whether its protein stability index is greater than or equal to 2. Yes

Check the entry G6K : does protein stability index equal or exceed 2? Yes

Please indicate if the recorded protein stability index for D4L meets or exceeds 2. Yes

Does protein stability index meet or surpass 2 for M3E ? No

hey, is protein stability index for this one >= 2? D13S Yes

Check this variant for protein stability index at or above 2: L17D Yes

The reported measurements were obtained from the supplement of paper PMC10567573.
